This section presents sequences with their documented BHET released values.
assay: BHET released, HPLC; higher = more BHET released; extreme values may be limits of the assay; settings: PET substrate: aFilm; 60 °C; pH 8.5; 24 h
Lab book: enter the figure in mM, no units written.

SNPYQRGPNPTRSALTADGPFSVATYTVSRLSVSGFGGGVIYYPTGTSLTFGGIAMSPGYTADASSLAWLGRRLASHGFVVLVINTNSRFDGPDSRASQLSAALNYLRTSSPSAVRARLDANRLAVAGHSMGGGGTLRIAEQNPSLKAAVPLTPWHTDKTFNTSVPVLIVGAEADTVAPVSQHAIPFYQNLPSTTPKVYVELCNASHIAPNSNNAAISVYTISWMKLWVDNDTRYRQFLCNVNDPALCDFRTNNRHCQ [LCC-ICCG] = 0

Record summary for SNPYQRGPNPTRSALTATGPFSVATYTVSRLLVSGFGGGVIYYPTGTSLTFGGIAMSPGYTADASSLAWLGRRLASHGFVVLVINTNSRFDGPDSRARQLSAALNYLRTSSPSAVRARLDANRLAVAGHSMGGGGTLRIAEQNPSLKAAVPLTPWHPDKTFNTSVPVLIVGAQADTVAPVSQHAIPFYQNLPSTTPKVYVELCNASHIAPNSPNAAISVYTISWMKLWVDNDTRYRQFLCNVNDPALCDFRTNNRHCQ [LCC-ICCG I6M] : reported BHET released = 0.00219

Record summary for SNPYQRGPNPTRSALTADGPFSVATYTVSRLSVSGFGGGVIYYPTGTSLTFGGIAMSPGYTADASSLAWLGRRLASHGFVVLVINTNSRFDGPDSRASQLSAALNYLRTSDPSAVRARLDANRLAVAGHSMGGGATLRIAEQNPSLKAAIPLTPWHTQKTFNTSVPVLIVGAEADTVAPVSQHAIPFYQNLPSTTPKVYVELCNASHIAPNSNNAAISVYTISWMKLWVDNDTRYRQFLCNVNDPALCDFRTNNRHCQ [LCC-ICCG DAQI] : reported BHET released = 0.00252

Record summary for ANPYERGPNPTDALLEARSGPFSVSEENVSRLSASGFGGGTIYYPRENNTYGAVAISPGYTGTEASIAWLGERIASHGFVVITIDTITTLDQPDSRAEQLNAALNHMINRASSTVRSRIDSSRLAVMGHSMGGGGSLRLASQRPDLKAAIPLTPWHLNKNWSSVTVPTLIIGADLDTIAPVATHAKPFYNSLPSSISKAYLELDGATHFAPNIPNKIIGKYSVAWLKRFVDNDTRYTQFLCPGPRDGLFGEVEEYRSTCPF [TfCut2] : reported BHET released = 0

Record summary for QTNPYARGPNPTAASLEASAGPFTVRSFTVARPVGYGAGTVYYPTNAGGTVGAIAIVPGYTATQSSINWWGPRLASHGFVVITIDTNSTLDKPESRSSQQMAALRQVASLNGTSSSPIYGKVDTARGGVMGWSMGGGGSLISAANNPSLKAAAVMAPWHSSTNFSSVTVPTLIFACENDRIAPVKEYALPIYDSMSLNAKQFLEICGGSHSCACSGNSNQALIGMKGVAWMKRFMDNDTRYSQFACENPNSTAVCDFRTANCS [HotPETase] : reported BHET released = 0

Record summary for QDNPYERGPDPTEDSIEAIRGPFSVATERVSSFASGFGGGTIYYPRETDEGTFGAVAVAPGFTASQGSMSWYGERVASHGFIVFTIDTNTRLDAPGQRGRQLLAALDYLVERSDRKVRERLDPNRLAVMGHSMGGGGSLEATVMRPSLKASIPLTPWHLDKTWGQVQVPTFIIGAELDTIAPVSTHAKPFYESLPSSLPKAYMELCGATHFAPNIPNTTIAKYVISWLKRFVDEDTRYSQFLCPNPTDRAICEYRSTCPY [Cut190*SS] : reported BHET released = 0

Data credit: the supplement of paper PMC11196671
